Dear all, this message contains pIC50 results, target or system Cytochrome P450 3A4 (Homo sapiens).
Quick note: pIC50 means taking -log10 of the concentration in moles per liter.

Specify pIC50 for CCCOc1sc(C(=O)N2[C@H]3CC[C@H]2CC(c2cc(CN)ccc2F)C3)c(C)c1Br (some centres not stated) , system Cytochrome P450 3A4 (Homo sapiens).
5.28

Specify pIC50 for CCCOc1sc(C(=O)N2CCC(c3cccc(CN)c3)CC2)c(C)c1Br , system Cytochrome P450 3A4 (Homo sapiens).
5.33

====

target: UniProt:Q12809; experiment: Inhibition of human ERG by whole-cell patch clamp electrophysiology assay
Measurement kind: pIC50
Quick note: pIC50 means taking -log10 of the concentration in moles per liter.

# return recorded pIC50 for entry CCCOc1sc(C(=O)N2CCC(c3cccc(CN)c3)CC2)c(C)c1Br
6.00

====

target: hERG (KCNH2) (Homo sapiens, UniProt Q12809); experiment: Inhibition of human ERG at 1 uM by whole-cell patch clamp electrophysiology assay
Sequence (Q12809 whole entry): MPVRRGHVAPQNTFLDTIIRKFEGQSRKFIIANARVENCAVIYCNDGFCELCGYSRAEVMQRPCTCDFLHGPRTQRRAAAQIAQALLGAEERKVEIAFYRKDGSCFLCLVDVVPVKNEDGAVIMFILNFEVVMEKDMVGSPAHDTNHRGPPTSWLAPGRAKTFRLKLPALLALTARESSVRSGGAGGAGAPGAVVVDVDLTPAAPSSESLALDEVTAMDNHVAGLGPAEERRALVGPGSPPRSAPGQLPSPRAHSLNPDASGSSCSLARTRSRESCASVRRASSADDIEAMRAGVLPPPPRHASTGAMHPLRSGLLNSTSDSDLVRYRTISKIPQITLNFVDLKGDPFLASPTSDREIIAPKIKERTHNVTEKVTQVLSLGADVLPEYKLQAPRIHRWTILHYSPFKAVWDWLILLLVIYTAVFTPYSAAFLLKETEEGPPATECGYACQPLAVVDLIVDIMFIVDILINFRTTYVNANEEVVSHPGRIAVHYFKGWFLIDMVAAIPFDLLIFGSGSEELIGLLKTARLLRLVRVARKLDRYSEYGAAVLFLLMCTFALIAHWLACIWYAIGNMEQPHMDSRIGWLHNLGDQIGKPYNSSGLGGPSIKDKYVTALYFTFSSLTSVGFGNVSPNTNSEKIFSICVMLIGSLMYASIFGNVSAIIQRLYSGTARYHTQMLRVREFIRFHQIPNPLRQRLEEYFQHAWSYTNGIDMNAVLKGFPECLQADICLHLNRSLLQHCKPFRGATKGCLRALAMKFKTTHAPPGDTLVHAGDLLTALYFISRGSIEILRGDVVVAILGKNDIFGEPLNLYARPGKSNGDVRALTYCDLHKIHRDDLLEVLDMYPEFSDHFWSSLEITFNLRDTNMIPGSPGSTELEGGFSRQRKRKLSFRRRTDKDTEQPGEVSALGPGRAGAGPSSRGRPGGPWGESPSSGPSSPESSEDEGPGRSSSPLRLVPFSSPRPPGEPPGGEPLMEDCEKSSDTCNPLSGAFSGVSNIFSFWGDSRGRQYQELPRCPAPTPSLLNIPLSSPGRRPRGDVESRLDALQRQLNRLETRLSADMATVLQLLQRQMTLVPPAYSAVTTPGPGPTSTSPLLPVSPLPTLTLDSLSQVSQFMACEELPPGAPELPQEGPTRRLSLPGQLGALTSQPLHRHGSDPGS
Measurement kind: inhibition at 1 µM
Remember to put the unit after the number in your answer.

# return recorded inhibition at 1 µM for entry CCCOc1sc(C(=O)N2[C@H]3CC[C@H]2CC(c2cc(CN)ccc2F)C3)c(C)c1Br (stereo partly specified)
14%

====

experiment: Metabolic stability in human liver microsomes after 20 mins; type: ADME, Microsome
Measurement kind: metabolized at 20 min (%)
# output: bare number, implied unit %

# return recorded metabolized at 20 min for entry CCCOc1sc(C(=O)N2[C@H]3CC[C@H]2CC(c2cc(CN)ccc2F)C3)c(C)c1Br (some centres not stated)
7

# return recorded metabolized at 20 min for entry CCCOc1sc(C(=O)N2CCC(c3cccc(CN)c3)CC2)c(C)c1Br
26
